Could you please report measured pEC50 for the items listed next?
Molecular target: GLP-1R (Homo sapiens, UniProt P43220)
Construct: host or cells: GLP-1R CRE-bla CHO-K1 cells
Sequence (P43220 24-463): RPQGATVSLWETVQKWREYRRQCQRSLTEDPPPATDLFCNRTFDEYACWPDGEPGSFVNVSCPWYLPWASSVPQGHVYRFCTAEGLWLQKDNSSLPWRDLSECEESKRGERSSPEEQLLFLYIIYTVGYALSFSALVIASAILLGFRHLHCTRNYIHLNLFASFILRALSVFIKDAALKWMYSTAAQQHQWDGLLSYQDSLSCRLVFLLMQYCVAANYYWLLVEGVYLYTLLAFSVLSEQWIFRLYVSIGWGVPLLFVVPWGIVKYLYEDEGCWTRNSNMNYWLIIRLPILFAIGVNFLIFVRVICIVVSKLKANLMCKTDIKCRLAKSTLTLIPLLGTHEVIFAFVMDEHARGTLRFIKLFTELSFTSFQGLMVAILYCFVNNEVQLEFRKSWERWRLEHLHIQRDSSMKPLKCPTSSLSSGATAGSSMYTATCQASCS
Sequence (P01275 100-127 partner limits assumed): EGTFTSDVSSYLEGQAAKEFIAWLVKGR
Experiment: EC20 GLP-1(9-36) PAM cAMP assay: dose response of compound in the presence of fixed concentration of GLP-1(9-36)
Assay type: cell-based
Details: dose response of compound in presence of fixed concentration of GLP-1(9-36), GLP-1R CRE-bla CHO-K1 cells, read-out: EC20 GLP-1(9-36) PAM EC50
Description: EC20 GLP-1(9-36) PAM cAMP Assay: Dose Response of Compound in the Presence of Fixed Concentration of GLP-1 (9-36). […]
pEC50: −log10 of the molar value.

Request: Find the measured pEC50 of "CCCCCCCOc1ccc(-c2cnc(-c3ccc(C[C@H](NC(=O)c4ccc(C(C)C)cc4)C(=O)N4CCC[C@H]4C(=O)O)cc3)nc2)cc1" and report it.
Response: 5.60 to 6.10

Request: For the compound "Cc1cc(-c2cnc(-c3ccc(C[C@H](NC(=O)c4ccc(C(C)(C)C)s4)C(=O)N4CC[C@H](C(=O)O)C4)cc3)nc2)ccc1OC(C)C" , give its measured pEC50 value.
Response: > 6.10

Request: Specify reported pEC50 for the compound shown: "CCCCCCCOc1ccc(-c2cnc(-c3ccc(C[C@H](NC(=O)c4ccc(C5CC5)s4)C(=O)N[C@H](C)C(=O)O)cc3)nc2)cc1"
Response: 5.60 to 6.10

* * *

target: GLP-1R (Homo sapiens); construct: host or cells: GLP-1R CRE-bla CHO-K1 cells; assay: EC20 GLP-1(9-36) PAM cAMP assay: dose response of compound in the presence of fixed concentration of GLP-1(9-36); assay type: cell-based; conditions: dose response of compound in presence of fixed concentration of GLP-1(9-36), GLP-1R CRE-bla CHO-K1 cells, read-out: EC20 GLP-1(9-36) PAM EC50
Provide the reported EC50 of each item.

Request: Write EC50 of "CCCCCCCc1ccc(-c2cnc(-c3ccc(C[C@H](NC(=O)c4ccc(C(C)(C)C)cc4)C(=O)NCCC(=O)O)cc3)nc2)cc1" ; system used: GLP-1R (Homo sapiens)
Response: 800 to 2500 nM

Request: Give EC50; test system GLP-1R (Homo sapiens); molecule "CCCCCCCOc1ccc(-c2cnc(-c3ccc(C[C@@H](NC(=O)c4ccc(C(C)(C)C)cc4)C(=O)NCC(=O)O)cc3)nc2)cc1"
Response: 800 to 2500 nM

Request: Give reported EC50 for "CCCCCCCOc1ccc(-c2cnc(-c3ccc(C[C@H](NC(=O)c4ccc(CC(C)C)s4)C(=O)N4CC(C(=O)O)C4)cc3)nc2)cc1" (GLP-1R (Homo sapiens))
Response: 800 to 2500 nM

* * *

I'd appreciate it if you could supply EC50 values for the items below.
target: GLP-1R (Homo sapiens, UniProt P43220); construct: host or cells: GLP-1R CRE-bla CHO-K1 cells; assay: EC20 GLP-1(9-36) PAM cAMP assay: dose response of compound in the presence of fixed concentration of GLP-1(9-36); format: cell-based; details: GLP-1R CRE-bla CHO-K1 cells, compound dose response with fixed concentration of GLP-1(9-36), read-out: EC20 GLP-1(9-36) PAM EC50

Request: Kindly indicate its recorded EC50. Item: "CCCc1ccc(-c2ccc(-c3cnc(-c4ccc(C[C@H](NC(=O)c5ccc(C6CC6)s5)C(=O)N5CC(C(=O)O)C5)cc4)nc3)c(F)c2)cc1"
Response: < 800 nM

Request: Dear colleague, please send me the reported EC50 for "CCC[C@H]1CC[C@H](C2CCN(c3cnc(-c4ccc(C[C@H](NC(=O)[C@H]5CC[C@H](C(C)(C)C)CC5)C(=O)N5CC(C(=O)O)C5)cc4)nc3)CC2)CC1" when you can.
Response: 800 to 2500 nM

Request: Supply recorded EC50 for "C[C@@H](NC(=O)[C@H](Cc1ccc(-c2ncc(/C=C/c3ccccc3C(F)(F)F)cn2)cc1)NC(=O)c1ccc(C(C)(C)C)s1)C(=O)O" here.
Response: 800 to 2500 nM

Request: Look up and state reported EC50 for "CCC[C@H]1CC[C@H](C2CCN(c3cnc(-c4ccc(C[C@H](NC(=O)c5ccc(C6CC6)cn5)C(=O)N5CC(C(=O)O)C5)cc4)nc3)CC2)CC1"
Response: 800 to 2500 nM

Request: Specify reported EC50 for the compound shown: "CC[C@H]1CC[C@H](c2ccc(-c3cnc(-c4ccc(C[C@H](NC(=O)c5ccc(C)s5)C(=O)O)cc4)nc3)cc2)CC1"
Response: 5000 to 10000 nM

Request: Answer with reported EC50 of "C[C@@H](NC(=O)[C@H](Cc1ccc(-c2ncc(-c3ccc(-c4ccccc4)c(F)c3)cn2)cc1)NC(=O)c1ccc(C(C)(C)C)s1)C(=O)O"
Response: < 800 nM

Request: For the compound "CCCCc1ccc(-c2ccc(-c3cnc(-c4ccc(C[C@H](NC(=O)c5ccc(C(C)(C)C)s5)C(=O)N5CC(C(=O)O)C5)cc4)nc3)c(F)c2)cc1" , report EC50.
Response: < 800 nM

Request: Please indicate EC50 recorded for CCCc1ccc(C2CN(c3cnc(-c4ccc(CC(NC(=O)c5ccc(C(C)(C)C)s5)C(=O)N5CC(C(=O)O)C5)cc4)nc3)C2)cc1 (stereo not shown)
Response: 800 to 2500 nM

Request: Fill in EC50 for record "CCC[C@H]1CC[C@H](C2CCN(c3cnc(-c4ccc(C[C@H](NC(=O)c5ccc(C(C)(C)C)s5)C(=O)N5CCC[C@H]5C(=O)O)cc4)nc3)CC2)CC1"
Response: < 800 nM

Request: Specify EC50 for "CCCc1ccc(C2CCN(c3cnc(-c4ccc(C[C@H](NC(=O)c5ccc(C(C)(C)C)s5)C(=O)N5CC(C(=O)O)C5)cc4)nc3)CC2)nn1" and stop.
Response: 5000 to 10000 nM

Request: Annotate the compound "CC(C)CCCOc1ccc(-c2cnc(-c3ccc(C[C@H](NC(=O)c4ccn(C(C)(C)C)c4)C(=O)N4CC(C(=O)O)C4)cc3)nc2)cc1" with its measured EC50.
Response: 800 to 2500 nM

Request: Tell us which EC50 value is on record for "CC(C)(C)COc1ccc(-c2cnc(-c3ccc(C[C@H](NC(=O)c4ccc(C(C)(C)C)s4)C(=O)O)cc3)nc2)cc1"
Response: 2500 to 5000 nM

Request: Please supply the value of reported EC50 for the item "CCC[C@H]1CC[C@H](C2CCN(c3cnc(-c4ccc(C[C@H](NC(=O)c5ccc(C(C)(C)C)s5)C(=O)N5CC(OC)(C(=O)O)C5)cc4)nc3)CC2)CC1"
Response: < 800 nM

Request: Assign EC50 to the following record: CCC[C@H]1CC[C@H](C2CCN(c3cnc(-c4ccc(C[C@H](NC(=O)c5ccc(C(C)(C)C)s5)C(=O)NC(C(=O)O)c5ccco5)cc4)nc3)CC2)CC1 (stereo partly shown)
Response: < 800 nM

Request: In one line, give reported EC50 of the entry "CC[C@H]1CC[C@H](c2ccc(-c3cnc(-c4ccc(C[C@H](NC(=O)c5cnc(C6CC6)nc5)C(=O)O)cc4)nc3)cc2)CC1" .
Response: < 800 nM

Request: Read off the recorded EC50 for "CC[C@H]1CC[C@H](c2ccc(-c3ccc(-c4ccc(C[C@H](NC(=O)c5ccc(C(C)(C)C)s5)C(=O)O)cc4)nc3)cc2)CC1"
Response: 2500 to 5000 nM

Request: Please report EC50 for the following compound: CN(CCC(C)(O)c1cccc(OC(F)(F)F)c1)c1cnc(-c2ccc(CC(NC(=O)c3ccc(C(C)(C)C)s3)C(=O)N3CC(C(=O)O)C3)cc2)nc1 (stereo not shown)
Response: < 800 nM

Request: # return recorded EC50 for input "CCCc1ccc(-c2ccc(-c3cnc(-c4ccc(C[C@H](NC(=O)c5ccc(CC(C)C)cc5)C(=O)N5CC(C(=O)O)C5)cc4)nc3)c(F)c2)cc1"
Response: < 800 nM

Request: For the compound "CC[C@H]1CC[C@H](c2ccc(-c3cnc(-c4ccc(C[C@H](NC(=O)c5cnc(C(C)(C)C)nc5)C(=O)O)cc4)nc3)cc2)CC1" , give its reported EC50.
Response: < 800 nM

Request: # return recorded EC50 for input "CCC[C@H]1CC[C@H](C2CCN(c3cnc(-c4ccc(C[C@H](NC(=O)c5ccc(S(=O)(=O)C(C)C)cc5)C(=O)N5CC(C(=O)O)C5)cc4)nc3)CC2)CC1"
Response: 800 to 2500 nM

Request: Supply reported EC50 belonging to this compound: "C[C@@H](NC(=O)[C@H](Cc1ccc(-c2ncc(-c3ccc(-c4ccnn4C)cc3)cn2)cc1)NC(=O)c1ccc(C(C)(C)C)s1)C(=O)O"
Response: 2500 to 5000 nM

Request: Using the record for "C[C@@H](NC(=O)[C@H](Cc1ccc(-c2ncc(-c3ccc(N4CCCC4)cc3)cn2)cc1)NC(=O)c1ccc(C(C)(C)C)s1)C(=O)O" , state its measured EC50.
Response: 800 to 2500 nM
